study_target: HLA-A*11:01
experiment_description: IEDB peptide-MHC binding, purified MHC/direct/fluorescence; filed as Kd, often an IC50 or EC50 that approximates it; bounds were set here for any values at or beyond the usual limits of such assays
cond: source organism: Escherichia coli O157:H7
I'd appreciate it if you could supply Kd values for the items below.

Challenge: What Kd value was documented for this sequence, `EEDAAVDDL` ?
Response given: ≥ 20 µM

Challenge: // returns reported Kd for input `YECTSRHFT`
Response given: ≥ 20 µM

---

study_target: HLA-A*69:01
experiment_description: IEDB peptide-MHC binding, purified MHC/competitive/fluorescence; filed as Kd, often an IC50 or EC50 that approximates it; bounds were set here for any values at or beyond the usual limits of such assays
cond: source organism: Acinetobacter baumannii
pKd: −log10 of the molar value.
property_measured: pKd

Challenge: Given `SIYAGNTPK` , state its recorded pKd.
Response given: ≤ 4.70
